The reported numbers originate from patent US12297186B2.

test: Metabolic stability assay, human microsomes; assay type: in vitro ADME; details: human recombinant microsomes (Tebu-Xenotech)
Below, each entry is listed alongside its reported microsomal CLint.
property: microsomal CLint

INSERT INTO assay_data (molecule, meas_value) VALUES
  ('Cc1cccc(-c2nn(CC(=O)NCc3ccccc3Cl)cc2-c2ccnc3ccccc23)n1 [Example 22]', '378 µL/min/mg'),
  ('CCc1ccccc1CNC(=O)Cn1cc(-c2ccnc3ccccc23)c(-c2cccc(C)n2)n1 [Example 27]', '505 µL/min/mg'),
  ('Cc1ccc(CNC(=O)Cn2cc(-c3ccnc4ccccc34)c(-c3cccc(C)n3)n2)cc1 [Example 20]', '216 µL/min/mg'),
  ('Cc1cccc(-c2nn(CC(=O)NCc3c(F)cccc3F)cc2-c2ccnc3ccccc23)n1 [Example 24]', '307 µL/min/mg'),
  ('Cc1cccc(-c2nn(CC(=O)NCc3c(C)cccc3C)cc2-c2ccnc3ccccc23)n1 [Example 26]', '622 µL/min/mg');
